# Tested on: HCT-116 colon
# protocol notes: NCI tumour cell line growth inhibition, 48 h
measure: TGI

Below: 2 molecules and their reported TGI.
- molecule: "Fc1ccc(-c2ncn(C3CCNCC3)c2-c2ccnc(Oc3ccc4c(c3)OCO4)n2)cc1"
  reported: "> 25 µM"
- molecule: "CCCn1c2c(c3c(O)cccc31)C(=O)c1ccccc1-2"
  reported: "> 100 µM"

// recorded TGI for N#CC1(C#N)C(C#N)(C#N)C1(C#N)C(N)=O : > 100 µM

// recorded TGI for C=CC(=O)N1CCC(c2ccc(C(N)=O)c(-c3ccc(Oc4ccccc4)cc3)n2)CC1 : > 100 µM

// recorded TGI for Cc1ccc(S(=O)(=O)NC(CCC(=O)NNc2ccccc2)C(=O)NNc2ccccc2)cc1 (stereo not given) : > 100 µM

* * *

# Test system: NCI-H460 lung
# protocol notes: NCI tumour cell line growth inhibition, 48 h
measure: TGI

Below: 5 compounds and their reported TGI.
- compound: "CCO/C=C1\\N=C(c2ccc(Cl)c(Cl)c2)OC1=O"
  reported: "> 100 µM"
- compound: "c1ccc(-c2nn3c(c2-c2ccnc4cc(OCCN5CCOCC5)ccc24)CCC3)nc1"
  reported: "> 100 µM"
- compound: "COc1ccccc1/C=C1\\COc2ccc(-c3ccccc3)cc2C1=O"
  reported: "4.62 µM"
- compound: "CC(C)(C)OC(=O)NC12C3C4C1C1C2C3C41NC(=O)OC(C)(C)C (centres undefined)"
  reported: "> 100 µM"
- compound: "Clc1sc(Cl)c2c1[C@@H](Cl)C[C@@H]2Cl"
  reported: "> 100 µM"

Assay NCI-H460 lung, sample CCC[CH2][Sn]([CH2]CCC)([O]C(=O)c1cc(OC)c(OC)cc1OC)[O][Sn]([CH2]CCC)([CH2]CCC)[O]C(=O)c1cc(OC)c(OC)cc1OC , TGI read: 2.85 µM

Assay NCI-H460 lung, sample NS(=O)(=O)c1nc(S(=O)(=O)O)c2[nH]cnc2n1 , TGI read: > 100 µM

Assay NCI-H460 lung, sample C(/C=N/NC1=NCCCCN1)=N\NC1=NCCCCN1 , TGI read: > 100 µM

Assay NCI-H460 lung, sample C=C(C(=O)O[C@H]1C/C(C)=C/CC/C(CO)=C/[C@H]2C(=O)OC(=C)[C@H]12)C(O)CO (some centres undefined) , TGI read: 31.6 µM

* * *

# Tested on: NCI-H226 lung
# protocol notes: NCI tumour cell line growth inhibition, 48 h
measure: TGI

Below: 3 molecules and their reported TGI.
- molecule: "C[C@]12CC[C@H]3[C@@H](CCC4=CC(=O)C=C[C@@]43OC(=O)C(F)(F)F)[C@@H]1CCC2=O"
  TGI: "> 100 µM"
- molecule: "O=c1[nH]nc(-c2ccccc2)n1/N=C/c1ccc([N+](=O)[O-])o1"
  TGI: "37.5 µM"
- molecule: "CN1C(=O)c2ccc3ccccc3c2C1=O"
  TGI: "> 100 µM"

// recorded TGI for CCCCNNC(=O)c1ccc(Br)cc1 : > 50 µM

// recorded TGI for O=C1CCCNn2c(nc3ncccc3c2=O)N1 : > 100 µM

// recorded TGI for Cc1cn(C2CCC(CO)(CF)O2)c(=O)[nH]c1=O (stereo unspecified) : > 100 µM

// recorded TGI for CCCC[C@@H](C)/C=C1\CN2CCC[C@H]2[C@@](C)(OCc2ccccc2)[C@@H]1O : > 50 µM

// recorded TGI for Nc1ccn(C2CC(F)C(CO)O2)c(=O)n1 (stereo unspecified) : > 100 µM

// recorded TGI for COc1c(C(C)=O)c(OCCCCOc2c(C(C)=O)c(OC)c3ccoc3c2OC)c(OC)c2occc12 : > 100 µM

// recorded TGI for Clc1sc(Cl)c2c1[C@@H](Cl)C[C@@H]2Cl : > 100 µM

// recorded TGI for O=S(=O)(NC1CCCCC1)c1ccc2c(c1)OCCOCCOCCOCCO2 : > 100 µM

// recorded TGI for CCC(=O)N1C/C(=C/c2ccc(Cl)cc2)C(=O)/C(=C/c2ccc(Cl)cc2)C1 : 3.5 µM

// recorded TGI for C[N+]1=c2c3cccc4cccc(c(=O)n2CC1)c43 : 28.7 µM

// recorded TGI for O=C1c2cc(Cc3ccccc3)c(=O)c(Cc3ccccc3)cc2C(=O)c2cc(Cc3ccccc3)c(=O)c(Cc3ccccc3)cc21 : > 100 µM

// recorded TGI for O=C(/C(=C(/O)c1ccccc1)c1nc2ccccc2sc1=O)c1ccccc1 : 72.8 µM

// recorded TGI for O=c1c2c([nH]c3nccn13)CCC2 : > 10 µM

// recorded TGI for COc1ccc(C(=O)Cn2c(C(=O)c3ccccc3)nc3ccccc32)cc1 : > 100 µM

// recorded TGI for CCCn1c2c(c3c(O)cccc31)C(=O)c1ccccc1-2 : > 100 µM

// recorded TGI for Cc1nc2cc(F)c(F)cc2[nH]c1=O : > 100 µM

// recorded TGI for CC(C)(C)OC(=O)N/C(C=O)=C\C1CCCCC1 : 55.1 µM

// recorded TGI for Cc1ccc2nc3ccccc3c(NCc3ccc(Cl)cc3)c2c1 : 17 µM

* * *

# System: U251 CNS
Outcome (select one): active, inactive

- compound: "O=[N+]([O-])c1cc[n+]([O-])c2ccccc12"
  group label: "active"

For the next question, use this compound.
Task: Which outcome was assigned to Cc1c(CNc2ccc(C(=O)NC(CCCNC(=O)c3ccccc3C(=O)O)C(=O)O)cc2)cnc2nc(N)nc(N)c12 (stereo not drawn) in this test?
Output: active

* * *

Parameter: GI50. Scope: all listed entries.
# System: UACC-257 melanoma
# protocol notes: NCI tumour cell line growth inhibition, 48 h

- compound: "COC(=O)c1cc(-c2ccccc2)[nH]c1N/N=C/c1c(Cl)cccc1Cl"
  GI50: "3.58 µM"
- compound: "CN(C)c1ccc(Nc2c3ccccc3nc3ccccc23)cc1"
  GI50: "0.987 µM"

// recorded GI50 for COC(C)(C)[C@@H](O)[C@H](O)C[C@H](C)C1=C2CC[C@@H]3[C@@]4(C)CC[C@@H](OC(C)=O)C(C)(C)[C@@H]4C[C@@H](OC4OC(COC(C)=O)C(O)C(O)C4O)[C@@]3(C)[C@]2(C)CC1 (stereo not given in full) : 12.6 µM

// recorded GI50 for CO/N=C(\COc1ccc2c(=O)c3ccccc3oc2c1)c1ccccc1 : 39.1 µM

// recorded GI50 for CNC(=O)NCC1OC(n2cnc3c(NC(=O)Nc4ccccc4)ncnc32)C(O[Si](C)(C)C(C)(C)C)C1O[Si](C)(C)C(C)(C)C (stereo not given) : 3.78 µM

* * *

# Test system: SF-539 CNS
# protocol notes: NCI tumour cell line growth inhibition, 48 h; in the data active means GI50 below about 0.43 µM; inactive means the rest
Outcome (select one): yes (1) for active, no (0) for inactive

- molecule: "Cc1ccc(S(=O)(=O)Oc2ccc3c4c(c(=O)oc3c2)CCCCCC4)cc1"
  group label: "no (0)"
- molecule: "C=C(C)[C@@H]1CCC=C2CC[C@]3(C)[C@H](CC[C@@H]4[C@@]5(C)CCCNC(C)(C)[C@@H]5CC[C@]43C)[C@H]21"
  group label: "no (0)"

Task: Which outcome was assigned to CCC[CH2][Sn]([CH2]CCC)([O]C(=O)c1cc(OC)c(OC)cc1OC)[O][Sn]([CH2]CCC)([CH2]CCC)[O]C(=O)c1cc(OC)c(OC)cc1OC in this test?
Output: yes (1)

Task: Which outcome was assigned to CCCCC(SC(=S)N1CCCC1)C(=O)Nc1nc(CC(=O)OCC)cs1 (centres undefined) in this test?
Output: no (0)

* * *

# System: UACC-62 melanoma
# protocol notes: NCI tumour cell line growth inhibition, 48 h
measure: TGI

- molecule: "NS(=O)(=O)c1nc(S(=O)(=O)O)c2[nH]cnc2n1"
  TGI: "> 100 µM"
- molecule: "C#CC(O)(c1nc2ccccc2s1)c1nc2ccccc2s1"
  TGI: "26.1 µM"
- molecule: "CC(C)/C=C1\\CCC(CN2CCOCC2)C1=O (stereo not drawn)"
  TGI: "36.3 µM"
- molecule: "N#C/C(=C1\\SCC(=O)N1c1ccccc1)c1nc2ccccc2[nH]1"
  TGI: "> 100 µM"
- molecule: "CN1/C(=C/C=C/C=C/C=C2C(=O)c3ccccc3C2=O)C(C)(C)c2ccccc21"
  TGI: "58.3 µM"
- molecule: "O[C@@H]1C=C[C@]23CCN(Cc4cc5c(cc42)OCO5)[C@@H]3C1"
  TGI: "> 100 µM"
- molecule: "COC1C(OC(=O)c2ccc(C)[nH]2)C(O)C(Oc2ccc3c(O)c(NC(=O)c4c[nH]c(C(=O)Nc5c(O)c6ccc(OC7OC(C)(C)C(OC)C(OC(=O)c8ccc(C)[nH]8)C7O)c(C)c6oc5=O)c4C)c(=O)oc3c2C)OC1(C)C (stereo not drawn)"
  TGI: "2.37 µM"

// recorded TGI for COc1ccccc1OCC(COC(=O)Nc1ccccc1)OC(=O)Nc1ccccc1 (stereo not drawn) : > 100 µM
